Reported Threshold concentration is given for each of the following compounds.
- System: Lysozyme
- protocol: Test for the inhibitory activity on the formation of AGE (lysozyme dimer formation, SDS gel electrophoresis, densitometry)
- Type: biochemical
- condition-label: AGE-inhibitory action, lysozyme 20 mg/ml, pH 7.4, 200 mmol/l glucose or xylose, 24 to 120 hours
- Protocol: Test for the inhibitory activity on the formation of AGE Lysozyme is dissolved at a final concentration of 20 mg/ml in 100 mmol/l potassium phosphate buffer, pH 7.4. 5 mmol/l sodium azide is added as a preservative. The formation of AGE is initiated by the addition of 200 mmol/l glucose or xylose. Test substances or the reference substance aminoguanidine are added at different concentrations in order to quantify an inhibitory activity on AGE formation. […]
recorded-metric: Threshold concentration

                                   compound     reading
0  COc1ccc(C(c2c(O)cc(/C=C/c3ccc(O)c(O)c3)oc2=O)c2c(O)cc(/C=C/c3ccc(O)c(O)c3)oc2=O)cc1  > 1 µmol/L
1  O=c1oc(/C=C/c2ccc(O)c(O)c2)cc(O)c1C(c1ccc(O)c(O)c1)c1c(O)cc(/C=C/c2ccc(O)c(O)c2)oc1=O    2 µmol/L
2  O=c1oc(/C=C/c2ccc(O)c(O)c2)cc(O)c1C(c1ccc(Cl)cc1)c1c(O)cc(/C=C/c2ccc(O)c(O)c2)oc1=O  > 1 µmol/L
3  COc1ccc(C(c2c(O)cc(/C=C/c3ccc(O)c(O)c3)oc2=O)c2c(O)cc(/C=C/c3ccc(O)c(O)c3)oc2=O)cc1OC  > 1 µmol/L
4  CC(C)(C)c1cc(C(c2c(O)cc(/C=C/c3ccc(O)c(O)c3)oc2=O)c2c(O)cc(/C=C/c3ccc(O)c(O)c3)oc2=O)cc(C(C)(C)C)c1O  > 1 µmol/L
5  COc1ccc(C(c2c(O)cc(/C=C/c3ccc(O)c(O)c3)oc2=O)c2c(O)cc(/C=C/c3ccc(O)c(O)c3)oc2=O)cc1O  > 1 µmol/L
6  N=C(N)NN [aminoguanidine, reference compound]  500 µmol/L
7  N#Cc1ccc(C(c2c(O)cc(/C=C/c3ccc(O)c(O)c3)oc2=O)c2c(O)cc(/C=C/c3ccc(O)c(O)c3)oc2=O)cc1   10 µmol/L
